src = PubChem BioAssay (NCATS)

# Assay Procedure: qHTS of pediatric cancer cell lines to identify multiple opportunities for drug repurposing: Confirmatory screen for control Hh wild type fibroblast cells (AID 1347121); further: nearly all actives have a fitted effect of over 70% in size
# Assay Conditions: viability qHTS; series mostly up to 45.9 µM
Inconclusive results are not listed. Activity calls are given as the source filed them. The call rests on the fitted dose curve; in most records, active means well fitted cell-killing curve with a large enough effect; inconclusive means small, poorly fitted or top-dose-only effect, or effect the other way; inactive means flat fitted curve, though single readings scatter. Starred links: 1 amine or outer side, 2 acyl side, 3 side chain; linkers in the order of their positions; H or OH if unused. Positions of bridges follow the written chain, without caps; N, C: chain ends. Non-standard residues stand in square brackets, D forms with d. Residues, ends and D or L forms follow the SMILES beside them. Chains are numbered I, II in the order given. Actinocin(9to1) = Cc1c2oc3c(C)ccc(C(=O)[*:1])c3nc-2c(C(=O)[*:2])c(N)c1=O; NMeV = CN[CH](C(=O)O)C(C)C; Sar = CNCC(=O)O
Observable: outcome

Compound	Test Value
COC[C@H](NC(=O)c1cnc(C)s1)C(=O)N[C@@H](COC)C(=O)N[C@@H](Cc1ccccc1)C(=O)[C@@]1(C)CO1	inactive
O=C(O)c1ccc(Nc2ncc3c(n2)-c2ccc(Cl)cc2C(c2c(F)cccc2F)=NC3)cc1	inactive
Cc1c2oc3c(C)ccc(C(=O)NC4C(=O)NC(C(C)C)C(=O)N5CCCC5C(=O)N(C)CC(=O)N(C)C(C(C)C)C(=O)OC4C)c3nc-2c(C(=O)NC2C(=O)NC(C(C)C)C(=O)N3CCCC3C(=O)N(C)CC(=O)N(C)C(C(C)C)C(=O)OC2C)c(N)c1=O (stereo not drawn) (I: TVP[Sar][NMeV] / II: TVP[Sar][NMeV]; ester I:1-I:C, II:1-II:C; linker I:N-II:N via Actinocin(9to1); configuration not given here)	inactive
